tested on: Rattus norvegicus; test: Antiinflammatory against carrageenan-induced paw edema in Sprague-Dawley rat assessed as remaining paw edema at 50 mg/kg, sc administered 30 mins before carrageenan challenge measured after 4 hrs by plethysmometer relative to control; format: functional; conditions: route subcutaneous
endpoint-label: Activity (%)
Answers are plain numbers, in %.

1) O=C(N/N=C/c1c[nH]c2ccccc12)c1cc2cc([N+](=O)[O-])ccc2s1	49.6
2) NNC(=O)c1cc2cc([N+](=O)[O-])ccc2s1	51.3

Kindly give each listed record's Activity.
1. NNC(=O)Nc1cc2cc([N+](=O)[O-])ccc2s1
2. O=C(NNC(=S)Nc1ccccc1)c1cc2cc([N+](=O)[O-])ccc2s1
3. Cc1ccc(/C=N/NC(=O)c2cc3cc([N+](=O)[O-])ccc3s2)o1

1. 56.4
2. 46.2
3. 40.7
